Source of measurements: paper PMC5371851

Test system: human gastric epithelial (GES-1) cells
property: Dm (median-effect dose, IC50 value) (ppm)
Answers are plain numbers, in ppm.

Consider the reported Dm (median-effect dose, IC50 value) for these compounds:
- CC(=O)O[C@@H]1[C@@H](O)[C@H]2O[C@@H]3C=C(C)C(=O)[C@@H](O)[C@]3(CO)[C@]1(C)[C@]21CO1 [FX, Fusarenon-X]: 0.85
- CC1=C[C@H]2O[C@@H]3[C@H](O)C[C@](C)([C@@]2(CO)[C@H](O)C1=O)[C@]31CO1 [DON, deoxynivalenol]: 2.99
- CC1=C[C@H]2O[C@@H]3[C@H](O)[C@@H](O)[C@](C)([C@@]2(CO)[C@H](O)C1=O)[C@]31CO1 [NIV, Nivalenol]: 0.58

[in] Returns the measured Dm (median-effect dose, IC50 value) for the input compound. Input: CC(=O)OC[C@]12[C@H](O)C(=O)C(C)=C[C@H]1O[C@@H]1[C@H](O)C[C@@]2(C)[C@]12CO2 [15-ADON, 15-acetyldeoxynivalenol]
[out] 4.77
